# tgt: c-Met kinase domain recombinant protein (Homo sapiens, UniProt P08581)
# Construct: 50 μL diluted solution of c-Met kinase domain recombinant protein in reaction buffer was added to initiate the reaction
# Sequence (P08581 1078-1345 limits assumed): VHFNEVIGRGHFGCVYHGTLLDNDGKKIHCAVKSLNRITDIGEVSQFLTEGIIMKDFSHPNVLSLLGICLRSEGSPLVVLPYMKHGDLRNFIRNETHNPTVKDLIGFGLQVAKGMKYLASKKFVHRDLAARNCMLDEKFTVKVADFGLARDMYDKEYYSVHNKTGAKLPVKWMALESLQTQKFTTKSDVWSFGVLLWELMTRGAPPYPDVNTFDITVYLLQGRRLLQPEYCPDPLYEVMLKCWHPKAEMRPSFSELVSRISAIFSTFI
# assay_explanation: biochemical
# protocol_conditions: read-out: Average inhibition rate at 10 μM (%)
Each entry below carries its recorded inhibition at 10 µM.
Kindly answer with a numeric value in %, unit omitted.

Given the molecule Cn1cc(-c2cnc3cnn(S(=O)(=O)c4cnc5ccc(-c6ccc(F)cc6F)cn45)c3c2)cn1 , write its reported inhibition at 10 µM.
72.5

Given the molecule Cn1cc(-c2cnc3cnn(S(=O)(=O)c4cnc5ccc(-c6cccc(C(F)(F)F)c6)cn45)c3c2)cn1 , write its reported inhibition at 10 µM.
77.7

Given the molecule Cn1cc(-c2cnc3cnn(S(=O)(=O)c4cccc(F)c4)c3c2)cn1 , write its reported inhibition at 10 µM.
57.5

Given the molecule Cn1cc(-c2cnc3cnn(S(=O)(=O)c4ccccc4C#N)c3c2)cn1 , write its reported inhibition at 10 µM.
72.4

---

# Tested on: BaF3/TPR-Met cell
# assay_explanation: Test III: growth inhibition of engineered BaF3/TPR-Met cells (MTT)
# Assay type: cell-based
# protocol_conditions: Mus musculus, read-out: Cell proliferation inhibition rate at 200 nM (%); BaF3/TPR-Met, 200 nM, 72 hours
Mark Condition met for reported inhibition at 0.2 µM of 80% or greater; mark Condition not met for anything smaller.

• CC(C)(C)OC(=O)N1CCC(n2cc(-c3cnc4cnn(S(=O)(=O)c5cnc6ccc(Cl)nn56)c4c3)cn2)CC1 = Condition met
• CC(C)(C)OC(=O)N1CCC(n2cc(-c3cnc4cnn(S(=O)(=O)c5cnc6ccc(Cl)cn56)c4c3)cn2)CC1 = Condition met
• CC(C)(C)OC(=O)N1CCC(n2cc(-c3cnc4cnn(S(=O)(=O)c5cnc6cccnn56)c4c3)cn2)CC1 = Condition not met
• O=S(=O)(c1cnc2cccnn12)n1ncc2ncc(-c3cnn(C4CCNCC4)c3)cc21 = Condition not met
• CC(=O)N1CCC(n2cc(-c3cnc4cnn(S(=O)(=O)c5cnc6ccccn56)c4c3)cn2)CC1 = Condition met
• O=C(C1CCCCC1)N1CCC(n2cc(-c3cnc4cnn(S(=O)(=O)c5cnc6ccccn56)c4c3)cn2)CC1 = Condition met
• O=S(=O)(c1cnc2ccccn12)n1ncc2ncc(-c3cnn(C4CCN(C5CCCC5)CC4)c3)cc21 = Condition met
• CC(C)N1CCC(n2cc(-c3cnc4cnn(S(=O)(=O)c5cnc6ccccn56)c4c3)cn2)CC1 = Condition not met

Could you now consider this next compound?
Does the reported inhibition at 0.2 µM for CC(C)(C)OC(=O)N1CCC(n2cc(-c3cnc4cnn(S(=O)(=O)c5cnn6cccnc56)c4c3)cn2)CC1 fall at or above the 80% mark?
Condition not met

---

Each entry below carries its recorded inhibition at 10 µM.
# tgt: c-Met kinase domain recombinant protein (Homo sapiens)
# Construct: 50 μL diluted solution of c-Met kinase domain recombinant protein in reaction buffer was added to initiate the reaction
# assay_explanation: biochemical
# protocol_conditions: read-out: Average inhibition rate at 10 μM (%)
Kindly answer with a numeric value in %, unit omitted.

Previously resolved entries follow.
• Cn1cc(-c2cnc3cnn(S(=O)(=O)c4cnc5ccc(Br)cn45)c3c2)cn1 [Example 70] = 79.3
• O=S(=O)(c1cnc2ccc(C(F)(F)F)cn12)n1ncc2ncc(-c3cnn(C4CCNCC4)c3)cc21 [Example 65] = 69.8

Given the molecule Cn1cc(-c2cnc3cnn(S(=O)(=O)c4cnc5ccc(-c6ccccc6)cn45)c3c2)cn1 [Example 71] , write its reported inhibition at 10 µM.
83.8

Given the molecule O=C(c1ccc(C(F)(F)F)cc1)N1CCC(n2cc(-c3cnc4cnn(S(=O)(=O)c5cnc6ccccn56)c4c3)cn2)CC1 [Example 58] , write its reported inhibition at 10 µM.
57.4

Given the molecule O=S(=O)(c1cnc2ccccn12)n1ncc2ncc(-c3ccc(N4CCOCC4)cc3)cc21 [Example 39] , write its reported inhibition at 10 µM.
68.8

Given the molecule O=S(=O)(c1cnc2ccccn12)n1ncc2ncc(-c3ccc(C(F)(F)F)cc3)cc21 [Example 32] , write its reported inhibition at 10 µM.
64.2

Given the molecule Cn1cc(-c2cnc3cnn(S(=O)(=O)c4cnn5cccnc45)c3c2)cn1 [Example 22] , write its reported inhibition at 10 µM.
69.5
